In this section we review reported phytotoxicity rating RICE values for a set of compounds.
# System: upland rice (Oryza sp., var. Tebonnet, RICE)
# Test Protocol: Post-emerge test, crop safety
# Format: in vivo
# Condition Set: post-emerge, 250 g ai/ha, 14 days after application, rating scale 0-100
Could you respond with only the numeric value?

Some solved entries appear below for comparison.
Provide phytotoxicity rating RICE value for the following compound: COc1c(Cl)cc(F)c(-n2c(=O)cc(C(F)(F)F)n(C)c2=O)c1NC(=O)c1ccccc1F
70

Provide phytotoxicity rating RICE value for the following compound: Cn1c(C(F)(F)F)cc(=O)n(-c2c(F)cc(Cl)c(OCC#N)c2NC(=O)CCc2ccccc2)c1=O
75

Provide phytotoxicity rating RICE value for the following compound: COc1c(Cl)cc(F)c(-n2c(=O)cc(C(F)(F)F)n(C)c2=O)c1NC(=O)c1ccccc1Cl
70

Provide phytotoxicity rating RICE value for the following compound: COc1c(Cl)cc(F)c(-n2c(=O)cc(C(F)(F)F)n(C)c2=O)c1NC(=O)C(=O)c1ccccc1
25

Provide phytotoxicity rating RICE value for the following compound: COc1c(Cl)cc(F)c(-n2c(=O)cc(C(F)(F)F)n(C)c2=O)c1NC(=O)c1ccc(F)c(F)c1
86

Provide phytotoxicity rating RICE value for the following compound: COc1c(Cl)cc(F)c(-n2c(=O)cc(C(F)(F)F)n(N)c2=O)c1NC(=O)c1ccc(F)cc1F
10

Provide phytotoxicity rating RICE value for the following compound: COc1c(Cl)cc(F)c(-n2c(=O)cc(C(F)(F)F)n(C)c2=O)c1NC(=O)c1cc(F)cc(F)c1
65

Provide phytotoxicity rating RICE value for the following compound: COc1c(Cl)cc(F)c(-n2c(=O)cc(C(F)(F)F)n(C)c2=O)c1NC(=O)c1ccc(OC(F)(F)F)cc1
20

Provide phytotoxicity rating RICE value for the following compound: COc1c(Cl)cc(F)c(-n2c(=O)cc(C(F)(F)F)n(C)c2=O)c1NC(=O)c1ccc2c(c1)OCO2
70

Provide phytotoxicity rating RICE value for the following compound: COc1c(Cl)cc(F)c(-n2c(=O)cc(C(F)(F)F)n(C)c2=O)c1NC(=O)C=Cc1ccco1
60

Others:
Provide phytotoxicity rating RICE value for the following compound: COc1c(Cl)cc(F)c(-n2c(=O)cc(C(F)(F)F)n(C)c2=O)c1NC(=O)C=Cc1ccc(Cl)cc1
20

Ref: patent US6355799B1
